B1: Hairpin Ribozyme (parent)
chain: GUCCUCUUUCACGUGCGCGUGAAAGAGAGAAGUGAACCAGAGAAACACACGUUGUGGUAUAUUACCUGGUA

# Variants of: B1
# Procedure Text: self-cleavage, relative activity (ratio to wild type); higher = more cleavage; co-transcriptional
Reported Property: self-cleavage

U2G U70G	0.244
U2C U53G	0.0768
A26U G69C	0.247
C3A G56C	0.147
C37U U53G	0.364
U8A U67A	0.196
